B1: Tudor domain-containing protein 3, residues 554 to 611; numbered along this chain, Q9H7E2 (parent)
chain: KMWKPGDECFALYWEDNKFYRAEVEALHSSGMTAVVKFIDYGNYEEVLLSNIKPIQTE

Variants of: B1
Assay: abundance fitness (aPCA) (normalised: wild type 0, dead -1); higher = more abundant; growth selection in yeast, the domain comes from the species named
Conditions: Homo sapiens
A collection of variants and their measured abundance fitness
propertyMeasured: abundance fitness

[[record]]
mutationcode = "C9G"
assayvalue = -0.869

[[record]]
mutationcode = "K18M"
assayvalue = -0.033

[[record]]
mutationcode = "L48M"
assayvalue = -0.113

[[record]]
mutationcode = "A22V"
assayvalue = -0.845

[[record]]
mutationcode = "I55W"
assayvalue = -0.372

[[record]]
mutationcode = "I52H"
assayvalue = -1.04

[[record]]
mutationcode = "I52A"
assayvalue = -0.824

[[record]]
mutationcode = "E58K"
assayvalue = -0.024

[[record]]
mutationcode = "A26Y"
assayvalue = -0.062

[[record]]
mutationcode = "E46F"
assayvalue = -0.697

[[record]]
mutationcode = "L48W"
assayvalue = -0.356

[[record]]
mutationcode = "E25C"
assayvalue = -0.019

[[record]]
mutationcode = "K4Q"
assayvalue = -0.158

[[record]]
mutationcode = "P54L"
assayvalue = -0.36

[[record]]
mutationcode = "H28C"
assayvalue = -0.098

[[record]]
mutationcode = "N43S"
assayvalue = -0.045

[[record]]
mutationcode = "K4M"
assayvalue = -0.169

